Each recorded value in this set is attributed to ChEMBL document CHEMBL4402513.

System: Quadruplex DNA
assay.text: Binding affinity to synthetic BCL2 G4 quadruplex DNA assessed as change in melting temperature at 10 molar equiv to DNA measured after 10 mins by circular dichroism melting analysis
Type: nucleic-acid assay
Overview of recorded ΔTm for various compounds
Show the value, then the unit it is measured in.

Please review the entries below; each comes with its answer.
> print(dat)
                              smiles.string  attribute.measured  observed
1  CN(C)CCCOc1ccccc1-c1nc2c3ncn(CCCN(C)C)c3ncn2c1NC(C)(C)C                 ΔTm    7.8 °C
2  CC(C)(C)Nc1c(-c2ccccc2OCCN2CCOCC2)nc2c3ncn(CCN4CCOCC4)c3ncn12                 ΔTm    1.9 °C
3  CN(C)c1ccc(-c2nc3c4ncn(CCCN)c4ncn3c2NC(C)(C)C)cc1                 ΔTm    1.7 °C
4  CN(C)CCCn1cnc2c1ncn1c(NC(C)(C)C)c(-c3ccccc3F)nc21                 ΔTm    8.2 °C

Summary for this compound, CC(C)(C)Nc1c(-c2ccccc2F)nc2c3ncn(CCN4CCCC4)c3ncn12 : ΔTm is 5 °C

Summary for this compound, CC(C)(C)Nc1c(-c2ccc(N3CCOCC3)cc2)nc2c3ncn(CCN4CCCC4)c3ncn12 : ΔTm is 9.1 °C

Summary for this compound, CN(C)CCCn1cnc2c1ncn1c(NC(C)(C)C)c(-c3ccc(N4CCOCC4)cc3)nc21 : ΔTm is 10.1 °C

---

measured.on: Quadruplex DNA
assay.text: Binding affinity to synthetic Cy5-fluorescently labeled c-MYC G4 quadruplex DNA by microscale thermophoresis method
Format: nucleic-acid assay
attribute.measured: Kd (µM)
Please reply with the bare figure in µM and do not write the unit itself.

Recorded Kd for CN(C)CCCn1cnc2c1ncn1c(NC(C)(C)C)c(-c3ccc(Cl)cc3)nc21 on Quadruplex DNA was 26

---

Overview of recorded ΔTm for various compounds
System: Quadruplex DNA
assay.text: Binding affinity to human telomeric 23 G4 quadruplex DNA assessed as change in melting temperature at 10 molar equiv to DNA measured after 10 mins by circular dichroism melting analysis
Type: nucleic-acid assay
Please reply with the bare figure in °C and do not write the unit itself.

Please review the entries below; each comes with its answer.
> print(dat)
                              smiles.string  result.unit  observed
1  CN(C)c1ccc(-c2nc3c4ncn(CCN5CCOCC5)c4ncn3c2NC(C)(C)C)cc1           °C       2.4
2  CN(C)c1ccc(-c2nc3c4ncn(CCCNC(=N)N)c4ncn3c2NC(C)(C)C)cc1           °C       0.6
3  CN(C)CCCn1cnc2c1ncn1c(NC(C)(C)C)c(-c3ccccc3F)nc21           °C       1.2
4  CN(C)CCCn1cnc2c1ncn1c(NC(C)(C)C)c(-c3ccc(N4CCOCC4)cc3)nc21           °C       3.8
5  CN(C)CCCn1cnc2c1ncn1c(NC(C)(C)C)c(-c3ccc(N(C)C)cc3)nc21           °C       7.2

Summary for this compound, CN(C)c1ccc(-c2nc3c4ncn(CCN5CCCC5)c4ncn3c2NC(C)(C)C)cc1 : ΔTm is 4.8

Summary for this compound, CN(C)c1ccc(-c2nc3c4ncn(CCCN)c4ncn3c2NC(C)(C)C)cc1 : ΔTm is -0.1

Summary for this compound, CN(C)CCCOc1ccccc1-c1nc2c3ncn(CCCN(C)C)c3ncn2c1NC(C)(C)C : ΔTm is 5.7
